The reported measurements were obtained from PubChem BioAssay (NCI).

Assay protocol: NCI Yeast Anticancer Drug Screen. Data for the cln2 rad14 strain (AID 165)
Run conditions: S. cerevisiae cln2 rad14 strain, at 50.0 µM
This is part of a sample that, as a whole, favours compounds with a hit. Of some 79,000 tested, about 15% had one in any assay. Active and inactive are the calls of the source. No stated cut-off is given here; in the data, active means growth inhibition above about 70%; inactive means the rest.
Select the correct class. Options are T = active, F = inactive and nothing else.

Which outcome did this test record for the compound `S=C(NC(=S)Nc1ccccc1)Nc1ccccc1` ?
T

Which outcome did this test record for the compound `CCCCCCCCCCSCCO` ?
T

Which outcome did this test record for the compound `O=C1C(=O)N(c2ccc(Cl)c(Cl)c2)C(=O)C(=O)C1c1nc2ccccc2o1` ?
T

Which outcome did this test record for the compound `Nc1ccccc1-c1nc2c(ccc3ccccc32)[nH]1` ?
F

Which outcome did this test record for the compound `CCOC(=O)/C(=C\c1cccc(C(F)(F)F)c1)P(=O)(OCC)OCC` ?
F
